- Tested on: PEPCK-c
- test_details: PEPCK-c mRNA expression in HepG2 cells
- Type: cell-based, human
- measurement_parameters: HepG2 cells, Experiment 1, basal (no insulin), four hours; UTC = 100
In the oligonucleotide strings, read from the 5' end, every base follows the letter of its sugar. An asterisk marks phosphorothioate; unmarked linkages are phosphodiester. Other units and linkages are bracketed, terminal groups are in braces. A string of capitals states the bases alone. e = 2'-O-(2-methoxyethyl) (MOE); [5mC] = 5-methylcytosine
measurement_kind: PEPCKc mRNA

INSERT INTO results (substance, value_reported) VALUES
  ('341802 (antisense AGCUGCUUUUGGGAUUCCGUUG; all 2''-MOE, all phosphorothioate, methylation of C and T or U not given here) [compound 341802]', 98),
  ('327873 (antisense e[5mC]*eT*eA*e[5mC]*e[5mC]*eA*eT*eA*eG*eG*eG*eT*eA*eA*eA*eA*e[5mC]*e[5mC]*eA*e[5mC]*eT) [compound 327873]', 72),
  ('327895 (antisense eA*e[5mC]*eA*eA*eA*e[5mC]*eA*e[5mC]*e[5mC]*eA*eT*eT*eG*eT*e[5mC]*eA*e[5mC]*eA*e[5mC]*eT*e[5mC]*e[5mC]*eA) [compound 327895]', 71);

---

- System: IGFBP-1
- test_details: IGFBP-1 mRNA expression in HepG2 cells
- Assay type: cell-based, human
- measurement_parameters: Experiment 4, insulin-sensitization: HepG2 cells treated with 1 nM insulin for four hours, 48 h post-transfection; mRNA by real-time PCR
In the oligonucleotide strings, read from the 5' end, every base follows the letter of its sugar. An asterisk marks phosphorothioate; unmarked linkages are phosphodiester. Other units and linkages are bracketed, terminal groups are in braces. A string of capitals states the bases alone. e = 2'-O-(2-methoxyethyl) (MOE); [5mC] = 5-methylcytosine; d = 2'-deoxy (DNA)
measurement_kind: IGFBP-1 (% UTC)

INSERT INTO measurements (substance, target_entity, measurement_kind, value_reported) VALUES
  ('341813 (antisense AGACACGTGCACTGTAGA; all 2''-MOE, all phosphorothioate, methylation of C not given here) [compound 341813]', 'IGFBP-1', 'IGFBP-1 (% UTC)', 117),
  ('328677 (eT*e[5mC]*e[5mC]*eT*eG*dG*dA*dT*dG*dA*dT*dA*dT*d[5mC]*dT*eA*e[5mC]*e[5mC]*eT*e[5mC]; antisense) [compound 328677]', 'IGFBP-1', 'IGFBP-1 (% UTC)', 159),
  ('186515 (antisense eA*eG*eG*eT*eA*dG*d[5mC]*dT*dT*dT*dG*dA*dT*dT*dA*eT*eG*eT*eA*eA) [compound 186515]', 'IGFBP-1', 'IGFBP-1 (% UTC)', 105);

---

- Tested on: Glut4
- test_details: Glut4 mRNA expression in adipocytes (real-time PCR)
- Assay type: cell-based, human
- measurement_parameters: differentiating adipocytes transfected with oligomeric compound
- Method: Expression of the four hallmark genes, HSL, aP2, Glut4, and PPARγ, is also measured in adipocytes transfected with oligomeric compounds of the invention. Cells are lysed on day nine post-transfection and total RNA is harvested. The amount of total RNA in each sample is determined using a Ribogreen Assay (Invitrogen Life Technologies, Carlsbad, Calif.). […]
In the oligonucleotide strings, read from the 5' end, every base follows the letter of its sugar. An asterisk marks phosphorothioate; unmarked linkages are phosphodiester. Other units and linkages are bracketed, terminal groups are in braces. A string of capitals states the bases alone. e = 2'-O-(2-methoxyethyl) (MOE); [5mC] = 5-methylcytosine; d = 2'-deoxy (DNA)
measurement_kind: GLUT4 mRNA

INSERT INTO assay_data (substance, value_reported) VALUES
  ('NNNNNNNNNNNNNNNNNNNN [ISIS 29848, reference compound]', '96 percentage of untreated control (UTC)'),
  ('327951 (antisense e[5mC]*eA*e[5mC]*eA*eA*eA*e[5mC]*e[5mC]*eA*eT*eT*eA*eT*eG*eT*eG*e[5mC]*eT*eG*e[5mC]*eT*eA) [compound 327951]', '81 percentage of untreated control (UTC)'),
  ('328759 (antisense eG*eA*eG*eG*eG*dA*dT*dT*dG*dT*dA*dT*dG*dA*dA*e[5mC]*eA*eT*e[5mC]*eT) [compound 328759]', '66 percentage of untreated control (UTC)'),
  ('328685 (e[5mC]*eG*eG*e[5mC]*e[5mC]*dG*dG*dA*dG*d[5mC]*d[5mC]*dA*dT*dA*dG*eA*e[5mC]*eT*e[5mC]*eG; antisense) [compound 328685]', '69 percentage of untreated control (UTC)');
